Value source: ChEMBL document CHEMBL4028853

- study.system: Free fatty acid receptor 2 (Homo sapiens)
- Sequence (O15552 whole entry): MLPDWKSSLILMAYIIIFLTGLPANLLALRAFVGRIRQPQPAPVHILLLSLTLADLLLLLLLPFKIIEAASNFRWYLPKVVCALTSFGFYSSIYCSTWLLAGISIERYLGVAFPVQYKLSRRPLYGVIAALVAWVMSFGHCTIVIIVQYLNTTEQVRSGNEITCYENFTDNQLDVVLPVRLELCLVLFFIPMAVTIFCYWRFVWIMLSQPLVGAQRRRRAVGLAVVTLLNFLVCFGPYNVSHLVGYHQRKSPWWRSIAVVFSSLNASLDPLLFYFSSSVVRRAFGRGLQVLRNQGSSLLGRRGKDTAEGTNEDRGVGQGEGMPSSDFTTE
- assay: Agonist activity at human GPCR43 transfected in HEK293 cells assessed as [35S]GTPgammaS binding by scintillation counting method
measure.name: EC50

*Q* Supply measured EC50 of `CC(=O)O` in your reply.
*A* 250 to 500 µM
